Parameter IC50: see the listing below.
biological target: Heat shock protein HSP 90-alpha (Homo sapiens, UniProt P07900); experiment: Inhibition of FITC-geldanamycin binding to recombinant human full-length C-terminal His-tagged HSP90alpha expressed in Escherichia coli after 3 hrs by fluorescence polarization assay
parameter: IC50

In [3]: df
Out[3]:
                            molecule_smiles  endpoint_value
0               O=C(CCCCCCC(=O)Nc1ccccc1)NO        > 0.5 µM
1  CC(C)c1cc(C(=O)Nc2ccc(NC(=O)CCCCCCC(=O)NO)cc2)c(O)cc1O          > 1 µM
2  CC(C)c1cc(C(=O)N(c2ccc(NC(=O)CCCCCCC(=O)NO)cc2)C(C)C)c(O)cc1O          > 1 µM
3  CC(C)c1cc(C(=O)Nc2ccccc2NC(=O)CCCCCCC(=O)NO)c(O)cc1O          > 1 µM
4  CC(C)c1cc(C(=O)Nc2cccc(NC(=O)CCCCCCC(=O)NO)c2)c(O)cc1O          > 1 µM
